- TEST DESCRIPTION: Pretargeting: 125-I-hMN-14 × 734 bsAb, 24 h later 99m-Tc-IMP-192, biodistribution
- Type: in vivo, Nude mice
- EXPERIMENTAL SETUP: female, nude (Taconic NCRNU), mouse, total radioactivity; Blood, 1 h post peptide
Where a SMILES comes first, the peptide text is derived from it. Side-chain parts run from the residue outwards. The star is where a group is joined. DTPA = O=C(O)CN(CCN(CC(=O)O)CC(=O)O)CCN(CC(=O)O)CC(=O)*; X1 = NC(=S)NN=CC(=O)*
MEASUREMENT KIND: tissue uptake at 1 h (%ID/g)
Give the value, in units of %ID/g, as a plain number.

Please look at this compound and report its tissue uptake at 1 h: CC(=O)N[C@@H](CCCCNC(=O)CN(CCN(CCN(CC(=O)O)CC(=O)O)CC(=O)O)CC(=O)O)C(=O)N[C@@H](Cc1ccc(O)cc1)C(=O)N[C@@H](CCCCNC(=O)CN(CCN(CCN(CC(=O)O)CC(=O)O)CC(=O)O)CC(=O)O)C(=O)N[C@@H](CCCCNC(=O)[C@H](CS)NC(=O)C=NNC(N)=S)C(N)=O [IMP 192] (Ac-K(DTPA)YK(DTPA)K([Cys-X1])-NH2)
3.5
